For each entry below, report its pIC50 value.
Target Or System: human Nav1.8 (hNav1.8) ion channel (Homo sapiens, UniProt Q9Y5Y9)
Sequence (Q9Y5Y9 whole entry): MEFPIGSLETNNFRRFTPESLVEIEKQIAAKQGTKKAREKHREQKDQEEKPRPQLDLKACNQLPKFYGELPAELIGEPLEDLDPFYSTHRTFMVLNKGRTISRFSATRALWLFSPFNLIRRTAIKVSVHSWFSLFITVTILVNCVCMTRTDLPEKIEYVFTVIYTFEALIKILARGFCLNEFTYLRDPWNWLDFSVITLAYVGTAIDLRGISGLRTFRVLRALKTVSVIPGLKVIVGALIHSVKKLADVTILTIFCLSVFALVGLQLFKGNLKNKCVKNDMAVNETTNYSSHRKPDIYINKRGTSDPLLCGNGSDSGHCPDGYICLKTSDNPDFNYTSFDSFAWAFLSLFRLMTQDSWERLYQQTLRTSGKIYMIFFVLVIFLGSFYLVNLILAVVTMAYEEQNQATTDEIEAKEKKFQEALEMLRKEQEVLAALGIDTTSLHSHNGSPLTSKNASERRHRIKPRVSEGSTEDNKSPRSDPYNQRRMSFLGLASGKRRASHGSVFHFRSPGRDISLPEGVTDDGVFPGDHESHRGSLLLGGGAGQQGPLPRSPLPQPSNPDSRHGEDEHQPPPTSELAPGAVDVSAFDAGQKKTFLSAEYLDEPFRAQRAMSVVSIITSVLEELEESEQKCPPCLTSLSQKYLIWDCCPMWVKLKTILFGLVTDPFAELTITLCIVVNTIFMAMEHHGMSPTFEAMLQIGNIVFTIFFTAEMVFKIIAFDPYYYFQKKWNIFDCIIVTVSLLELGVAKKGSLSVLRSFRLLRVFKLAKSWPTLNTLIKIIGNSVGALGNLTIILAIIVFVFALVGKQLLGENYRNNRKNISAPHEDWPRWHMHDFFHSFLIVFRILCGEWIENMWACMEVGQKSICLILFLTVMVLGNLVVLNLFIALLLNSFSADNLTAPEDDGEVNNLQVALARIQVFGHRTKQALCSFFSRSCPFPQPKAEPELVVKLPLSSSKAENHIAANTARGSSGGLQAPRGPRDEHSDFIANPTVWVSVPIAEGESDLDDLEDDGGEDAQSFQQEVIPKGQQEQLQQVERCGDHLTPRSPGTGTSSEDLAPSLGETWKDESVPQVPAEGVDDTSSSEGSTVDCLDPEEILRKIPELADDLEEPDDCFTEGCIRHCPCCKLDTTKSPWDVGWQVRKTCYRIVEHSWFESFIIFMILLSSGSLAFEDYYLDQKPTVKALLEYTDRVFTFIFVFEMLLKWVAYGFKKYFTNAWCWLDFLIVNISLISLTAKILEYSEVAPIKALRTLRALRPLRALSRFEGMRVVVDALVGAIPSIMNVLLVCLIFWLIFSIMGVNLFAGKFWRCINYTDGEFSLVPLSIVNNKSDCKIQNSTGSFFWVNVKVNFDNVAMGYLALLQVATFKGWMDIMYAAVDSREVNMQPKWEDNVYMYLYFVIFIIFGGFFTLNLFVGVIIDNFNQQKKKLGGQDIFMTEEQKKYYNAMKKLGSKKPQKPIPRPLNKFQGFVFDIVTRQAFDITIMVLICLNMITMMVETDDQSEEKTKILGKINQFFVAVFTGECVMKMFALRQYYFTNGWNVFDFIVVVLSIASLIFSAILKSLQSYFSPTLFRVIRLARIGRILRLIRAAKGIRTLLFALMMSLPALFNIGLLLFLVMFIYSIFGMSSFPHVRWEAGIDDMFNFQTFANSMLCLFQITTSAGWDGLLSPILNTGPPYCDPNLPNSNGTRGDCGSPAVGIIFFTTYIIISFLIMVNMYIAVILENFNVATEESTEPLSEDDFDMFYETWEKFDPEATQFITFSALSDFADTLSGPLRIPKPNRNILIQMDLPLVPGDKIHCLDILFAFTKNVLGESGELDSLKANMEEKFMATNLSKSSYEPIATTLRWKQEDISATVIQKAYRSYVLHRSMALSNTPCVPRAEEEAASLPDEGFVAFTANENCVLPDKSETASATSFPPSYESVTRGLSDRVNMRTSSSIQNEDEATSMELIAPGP
Experimental Protocol: Nav1.8 channel inhibition, estimated IC50 (one or more of: fluorescence inhibition assay, PatchXpress, IonFlux HT automated patch clamp)
Condition Summary: HEK293 cells stably expressing hNav1.8; method used per compound not stated; read-out: Activity range (estimated IC50)
pIC50: −log10 of the molar value.

Query :: Record lookup: for human Nav1.8 (hNav1.8) ion channel (Homo sapiens, UniProt Q9Y5Y9), what pIC50 belongs to "Cc1ccc(S(C)(=O)=O)cc1NC(=O)c1cc(C(F)(F)F)cnc1Oc1ccc(OC(F)(F)F)cc1Cl" ?
Result :: 6.00 to 6.30

Query :: Return pIC50 measured with human Nav1.8 (hNav1.8) ion channel (Homo sapiens, UniProt Q9Y5Y9) given this compound: "CS(=O)(=O)c1cccc(NC(=O)c2cc(C(F)(F)F)cnc2Oc2cccc3scnc23)c1"
Result :: < 6.00

Query :: Form entry - test system: human Nav1.8 (hNav1.8) ion channel (Homo sapiens, UniProt Q9Y5Y9); read-out: pIC50; compound: "COc1cc(F)ccc1Oc1ncc(C(F)(F)F)cc1C(=O)Nc1cccc(N=S(C)(C)=O)c1"
Result :: < 6.00

Query :: Form: Entry = "Cc1cccc(C)c1Oc1ncc(C(F)(F)F)cc1C(=O)Nc1cccc(S(C)(=O)=O)c1" | System = human Nav1.8 (hNav1.8) ion channel (Homo sapiens, UniProt Q9Y5Y9) | pIC50 = ____
Result :: < 6.00

Query :: Find pIC50 (human Nav1.8 (hNav1.8) ion channel (Homo sapiens, UniProt Q9Y5Y9)) for the entry "O=C(Nc1cnns1)c1cc(C(F)(F)F)cnc1Oc1ccc(OC(F)(F)F)cc1Cl"
Result :: 6.00 to 6.30

Query :: // fetch human Nav1.8 (hNav1.8) ion channel (Homo sapiens, UniProt Q9Y5Y9) pIC50 for CS(=N)(=O)c1cccc(NC(=O)c2cc(C(F)(F)F)cnc2Oc2ccccc2Cl)c1 (centres unmarked)
Result :: > 6.30

Query :: Which pIC50 is reported with human Nav1.8 (hNav1.8) ion channel (Homo sapiens, UniProt Q9Y5Y9) for this entry: "COc1cc(F)ccc1Oc1ncc(C(F)(F)F)cc1C(=O)Nc1nc2ccccc2s1" ?
Result :: < 6.00

Query :: Notebook: pull reported pIC50 for human Nav1.8 (hNav1.8) ion channel (Homo sapiens, UniProt Q9Y5Y9), entry CN=S(C)(=O)c1cccc(NC(=O)c2cnc(C(F)(F)F)cc2Oc2ccc(F)cc2OC)c1 (centres unmarked)
Result :: > 6.30

###

Kindly supply the reported IC50 values for the records listed here.
Target Or System: human Nav1.8 (hNav1.8) ion channel (Homo sapiens, UniProt Q9Y5Y9)
Construct: expressed in transfected cells; host or cells: HEK293
Experimental Protocol: Nav1.8 channel inhibition, estimated IC50 (one or more of: fluorescence inhibition assay, PatchXpress, IonFlux HT automated patch clamp)
Assay type: cell-based
Condition Summary: HEK293 cells stably expressing hNav1.8; method used per compound not stated; read-out: Activity range (estimated IC50)

Query :: If you can, please state the reported IC50 value of COc1cc(F)ccc1Oc1nc2c(cc1C(=O)Nc1cccc(S(C)(=O)=O)c1)CCC2 [Example 120] .
Result :: < 500 nM

Query :: May I ask what IC50 has been recorded for CS(=O)(=O)c1cccc(NC(=O)c2cc(C(F)(F)F)cnc2Oc2ccccc2)c1 [Example 41] ?
Result :: > 1000 nM

Query :: // query IC50 value for entry CS(=O)(=O)c1cccc(NC(=O)c2cc(C(F)(F)F)cnc2Oc2ccc(F)cc2Cl)c1 [Example 36]
Result :: < 500 nM

Query :: If you can, please state the reported IC50 value of COc1cc(F)ccc1Oc1ncc(C(F)(F)F)cc1C(=O)Nc1cccc(S(C)(=O)=O)c1 [Example 35] .
Result :: < 500 nM

Query :: Given the compound COc1cc(F)ccc1Oc1cc(C(F)(F)F)ncc1C(=O)Nc1cccc([S+](C)[O-])c1 (stereo not drawn) [Example 68] , what is its reported IC50?
Result :: < 500 nM

Query :: Fill in the blank: the reported IC50 of CCS(=O)(=O)c1cccc(NC(=O)c2cc(C(F)(F)F)cnc2Oc2ccc(OC(F)(F)F)cc2Cl)c1 [Example 143] is ____.
Result :: 500 to 1000 nM
